EXPERIMENT: Half life period in rat after oral administration at 13 mg/kg dose
Assay type: ADME, organism-based
Design: dose 13 mg/kg, route oral
REPORTED CONDITIONS: in vivo
OBSERVABLE: half-life
Don't forget the unit after the value.

Query: I'd like to know its half-life. The molecule in question is Cc1nc2cc(OCC(O)CN3CCN(CC(=O)Nc4c(C)cccc4C)CC3)ccc2s1 (stereo unspecified)
Response: 3 h

----------
Organism: Rattus norvegicus
EXPERIMENT: Inhibition of 1-14C]palmitoyl-CoA oxidation in rat heart mitochondria at 100 uM concentration
Assay type: functional
OBSERVABLE: inhibition (%)
Respond with the bare value in %.

Query: I'd like to know its inhibition. The compound in question is Cc1cccc(C)c1NC(=O)CN1CCN(CC(O)COc2ccc3oc(-c4ccc(C(F)(F)F)cc4)nc3c2)CC1 (centres undefined)
Response: 89

Query: Similarly, Cc1nc2cc(OCC(O)CN3CCN(CC(=O)Nc4c(C)cccc4C)CC3)ccc2s1 (centres undefined) ?
Response: 88

Query: Similarly, Cc1nc2cc(OCC(O)CN3CCN(CC(=O)Nc4c(C)cccc4C)CC3)ccc2o1 (centres undefined) ?
Response: 34

Query: Similarly, Cc1cccc(C)c1NC(=O)CN1CCN(CC(O)COc2ccc3oc(-c4cccc(C(F)(F)F)c4)nc3c2)CC1 (centres undefined) ?
Response: 82

----------
EXPERIMENT: AUC in rat after oral administration at 9.7 mg/kg dose
Type: ADME, organism-based
Set-up: dose 9.7 mg/kg, route oral
REPORTED CONDITIONS: plasma
OBSERVABLE: AUC

Query: I'd like to know its AUC. The compound in question is `Cc1nc2cc(OC[C@H](O)CN3CCN(CC(=O)Nc4c(C)cccc4C)C[C@@H]3C)ccc2s1`
Response: 278 ng·h/mL

----------
EXPERIMENT: AUC in rat after oral administration at 11.2 mg/kg dose
Format: ADME, organism-based
Parameters: dose 11.2 mg/kg, route oral
REPORTED CONDITIONS: plasma
OBSERVABLE: AUC (ng·h/mL)
Respond with the bare value in ng·h/mL.

Query: I'd like to know its AUC. The compound in question is Cc1nc2cc(OC[C@H](O)CN3C(C)CN(CC(=O)Nc4c(C)cccc4C)CC3C)ccc2s1 (stereo partly specified)
Response: 128

----------
EXPERIMENT: Oral bioavailability in rat after oral administration at 13 mg/kg dose
Type: ADME, organism-based
REPORTED CONDITIONS: in vivo
OBSERVABLE: bioavailability (%)
Respond with the bare value in %.

Query: I'd like to know its bioavailability. The molecule in question is Cc1nc2cc(OCC(O)CN3CCN(CC(=O)Nc4c(C)cccc4C)CC3)ccc2s1 (stereo unspecified)
Response: 45

----------
EXPERIMENT: AUC in rat after oral administration at 10.5 mg/kg dose
Type: ADME, organism-based
Design: dose 10.5 mg/kg, route oral
REPORTED CONDITIONS: plasma
OBSERVABLE: AUC (ng·h/mL)
Respond with the bare value in ng·h/mL.

Query: I'd like to know its AUC. The compound in question is `Cc1nc2cc(OC[C@H](O)CN3CCN(CC(=O)Nc4c(C)cccc4C)CC3(C)C)ccc2s1`
Response: 265

----------
EXPERIMENT: Half life period in rat after oral administration at 11.2 mg/kg dose
Assay type: ADME, organism-based
Set-up: dose 11.2 mg/kg, route oral
REPORTED CONDITIONS: in vivo
OBSERVABLE: half-life (h)
Respond with the bare value in h.

Query: I'd like to know its half-life. The molecule in question is Cc1nc2cc(OC[C@H](O)CN3C(C)CN(CC(=O)Nc4c(C)cccc4C)CC3C)ccc2s1 (stereo partly specified)
Response: 3.5

----------
EXPERIMENT: Oral bioavailability in rat after oral administration at 10.5 mg/kg dose
Format: ADME, organism-based
REPORTED CONDITIONS: in vivo
OBSERVABLE: bioavailability (%)
Respond with the bare value in %.

Query: I'd like to know its bioavailability. The compound in question is `Cc1nc2cc(OC[C@H](O)CN3CCN(CC(=O)Nc4c(C)cccc4C)CC3(C)C)ccc2s1`
Response: 13

----------
For each entry below, report its inhibition value.
Organism: Rattus norvegicus
EXPERIMENT: Inhibition of 1-14C]palmitoyl-CoA oxidation in rat heart mitochondria at 100 uM concentration
Format: functional
Respond with the bare value in %.

Query: I'd like to know its inhibition. The compound in question is Cc1cccc(C)c1NC(=O)CN1CCN(CC(O)COc2ccc3ncsc3c2)CC1 (centres undefined)
Response: 3

Query: Similarly, Cc1nc2ccc(OCC(O)CN3CCN(CC(=O)Nc4c(C)cccc4C)CC3)cc2s1 (centres undefined) ?
Response: 3

Query: Similarly, Cc1nc2cc(OC[C@H](O)CN3CC4CC3CN4CC(=O)Nc3c(C)cccc3C)ccc2s1 (some centres undefined) ?
Response: 40

Query: Similarly, `Cc1nc2cc(OC[C@@H](O)CN3CCN(CC(=O)Nc4c(C)cccc4C)CC3)ccc2s1` ?
Response: 47

Query: Similarly, Cc1cccc(C)c1NC(=O)CN1CCN(CC(O)COc2ccc3oc(-c4ccccc4)nc3c2)CC1 (centres undefined) ?
Response: 70

Query: Similarly, CCCc1nc2cc(OCC(O)CN3CCN(CC(=O)Nc4c(C)cccc4C)CC3)ccc2s1 (centres undefined) ?
Response: 70

Query: Similarly, `Cc1nc2cc(OCCCN3CCN(CC(=O)Nc4c(C)cccc4C)CC3)ccc2s1` ?
Response: 38

Query: Similarly, `Cc1nc2cc(OC[C@H](O)CN3C[C@@H]4C[C@H]3CN4CC(=O)Nc3c(C)cccc3C)ccc2s1` ?
Response: 26

Query: Similarly, CCc1nc2cc(OCC(O)CN3CCN(CC(=O)Nc4c(C)cccc4C)CC3)ccc2s1 (centres undefined) ?
Response: 75
